Target: T1, extracellular domain (ECD) of human αKlotho, amino acids E34-S981 with C-terminal 6-His tag (R&D Systems … (human, UniProt Q9UEF7 34-981))
T1 construct: range 34-981; also called αKlotho (aa34-981); target antigen
T1 sequence: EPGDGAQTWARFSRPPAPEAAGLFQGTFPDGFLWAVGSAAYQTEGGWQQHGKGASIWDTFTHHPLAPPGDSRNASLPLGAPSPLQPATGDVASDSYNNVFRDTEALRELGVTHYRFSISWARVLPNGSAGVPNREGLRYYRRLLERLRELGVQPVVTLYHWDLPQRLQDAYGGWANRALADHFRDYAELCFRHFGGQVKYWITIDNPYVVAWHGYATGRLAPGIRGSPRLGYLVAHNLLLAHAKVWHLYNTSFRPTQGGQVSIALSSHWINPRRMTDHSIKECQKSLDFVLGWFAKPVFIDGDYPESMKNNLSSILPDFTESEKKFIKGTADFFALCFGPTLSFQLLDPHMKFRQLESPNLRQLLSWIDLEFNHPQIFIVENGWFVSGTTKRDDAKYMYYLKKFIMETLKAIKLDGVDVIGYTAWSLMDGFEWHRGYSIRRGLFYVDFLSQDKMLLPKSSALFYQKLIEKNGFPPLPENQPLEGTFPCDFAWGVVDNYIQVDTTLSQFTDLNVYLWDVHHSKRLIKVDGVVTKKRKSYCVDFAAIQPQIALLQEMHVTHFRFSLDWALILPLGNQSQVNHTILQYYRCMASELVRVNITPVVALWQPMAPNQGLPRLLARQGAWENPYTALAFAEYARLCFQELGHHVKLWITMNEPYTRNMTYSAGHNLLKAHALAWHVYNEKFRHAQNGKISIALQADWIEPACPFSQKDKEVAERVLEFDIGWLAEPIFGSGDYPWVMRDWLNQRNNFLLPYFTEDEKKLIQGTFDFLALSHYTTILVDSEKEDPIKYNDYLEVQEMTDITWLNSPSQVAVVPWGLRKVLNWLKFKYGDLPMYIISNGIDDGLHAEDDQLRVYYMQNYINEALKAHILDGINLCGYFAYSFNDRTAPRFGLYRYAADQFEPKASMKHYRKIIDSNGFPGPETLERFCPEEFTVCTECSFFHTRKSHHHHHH
Assay: SPR, Fab captured by anti-H+L IgG, αKlotho injected at 50 to 6.25 ug/ml, Langmuir fit [continued]
propertyMeasured: kon (M⁻¹ s⁻¹)

>  <binder>
anti-αKlotho Fab clone 4820 (Fab, V domains shown, Fab (also as Fab-phage); FLAG tag on light chain; also called sb189) VH: EVQLVESGGGLVQPGGSLRLSCAASGFNISSYYMHWVRQAPGKGLEWVASIYSSYSSTYYADSVKGRFTISADTSKNTAYLQMNSLRAEDTAVYYCARGAWAMDYWGQGTLVTVSS VL: DIQMTQSPSSLSASVGDRVTITCRASQSVSSAVAWYQQKPGKAPKLLIYSASSLYSGVPSRFSGSRSGTDFTLTISSLQPEDFATYYCQQSPWGAYLITFGQGTKVEIKR

>  <propertyMeasured>
kon

>  <obsValue>
780000

$$$$
>  <binder>
anti-αKlotho Fab clone 4826 (Fab, V domains shown, Fab (also as Fab-phage); FLAG tag on light chain; also called sb195) VH: EVQLVESGGGLVQPGGSLRLSCAASGFNISSYYMHWVRQAPGKGLEWVASISSSYGYTYYADSVKGRFTISADTSKNTAYLQMNSLRAEDTAVYYCARGYPASSYYYPSSALDYWGQGTLVTVSS VL: DIQMTQSPSSLSASVGDRVTITCRASQSVSSAVAWYQQKPGKAPKLLIYSASSLYSGVPSRFSGSRSGTDFTLTISSLQPEDFATYYCQQAGFFSYPITFGQGTKVEIKR

>  <propertyMeasured>
kon

>  <obsValue>
1.07e+06

$$$$
